target: CNA-CF-PRIEIT interaction (Homo sapiens, UniProt Q08209); construct: human CNAα (amino acids 2-347); assay: Fluorescence polarization assay, disruption of the CNA-CF-PRIEIT interaction (Example 20); type: binding; details: 50 µM compound, 5 µM human CNAα, 30 nM CF-PRIEIT; mean of triplicates
Sequence (Q08209 2-347): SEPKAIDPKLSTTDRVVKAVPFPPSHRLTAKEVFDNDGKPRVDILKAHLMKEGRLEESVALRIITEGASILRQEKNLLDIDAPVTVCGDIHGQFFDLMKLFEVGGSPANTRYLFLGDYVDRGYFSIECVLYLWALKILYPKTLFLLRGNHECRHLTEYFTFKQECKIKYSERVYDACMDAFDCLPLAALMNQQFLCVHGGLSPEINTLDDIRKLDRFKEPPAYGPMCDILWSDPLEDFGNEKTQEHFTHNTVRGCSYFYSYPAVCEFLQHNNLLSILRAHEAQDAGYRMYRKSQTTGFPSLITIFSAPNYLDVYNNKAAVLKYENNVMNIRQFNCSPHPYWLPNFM
reported.property: inhibition at 50 µM (%)
Answer in %, number only, no unit symbol.

Study these solved cases before continuing.
COc1ccccc1-c1ccc(N2CCCC(NS(=O)(=O)c3ccc4c(c3)OCO4)C2=O)c(F)c1 (stereo not shown)	25.7
COc1ccccc1-c1ccc(N2CCCC(NS(=O)(=O)c3ccc(-c4ccccn4)s3)C2=O)c(F)c1 (stereo not shown)	15.8
COc1ccccc1-c1ccc(N2CCCC(NS(=O)(=O)c3cc(Cl)c(Cl)s3)C2=O)c(F)c1 (stereo not shown)	6.53

Moving on to another molecule below.
State the recorded inhibition at 50 µM for this entry: CCOC(=O)CN(C1CCCN(c2ccc(-c3ccccc3OC)cc2F)C1=O)S(=O)(=O)c1ccc(-c2ccccn2)s1 (stereo not shown)
29.3
